assay: WBS (whole blood stability) assay; type: in vitro ADME; conditions: Mouse whole blood, 2 μM, 37° C.
% Remaining after 60 min incubation: recorded values
All answers are understood in %, so give the number only.

Cc1c(F)c(N)cc(C(=O)Nc2cc(-n3cc(C(=O)N4CCN(C)CC4)nn3)c(F)cc2N2C[C@@H](C)N(C)[C@@H](C)C2)c1Cl : 108
C[C@@H]1CN(c2ncc(-c3cc(Nc4ncnc(Cl)c4N)c(N4CCN(C)[C@@H](C)C4)cc3F)cn2)C[C@H](C)O1 : 103
C[C@H]1CN(c2cc(F)c(-c3cnc(N4CCOCC4)nc3)cc2Nc2ncnc(Cl)c2N)CCN1C : 104

Lab note: next compound to report on.
Req: Report % Remaining after 60 min incubation for `CCN(CC)C(=O)c1cn(-c2cc(NC(=O)c3cc(N)c(F)c(C)c3Cl)c(N3C[C@@H](C)N(C)[C@@H](C)C3)cc2F)nn1` please.
Resp: 82.4

====

test: Liver S9 stability assay; assay type: in vitro ADME, rat; conditions: Rat liver S9, 1 μM, 5 mM GSH, 37° C.
measure-name: % Remaining after 60 min incubation

# example entries with known answers
C[C@@H]1CN(c2ncc(-c3cc(Nc4ncnc(Cl)c4N)c(N4CCN(C)[C@@H](C)C4)cc3F)cn2)C[C@H](C)O1 : 101%
C[C@H]1CN(c2cc(F)c(-c3cnc(N4CCOCC4)nc3)cc2Nc2ncnc(Cl)c2N)CCN1C : 88.8%
CCN(CC)C(=O)c1cn(-c2cc(NC(=O)c3cc(N)c(F)c(C)c3Cl)c(N3C[C@@H](C)N(C)[C@@H](C)C3)cc2F)nn1 : 98.3%

Req: For `Cc1c(F)c(N)cc(C(=O)Nc2cc(-n3cc(C(=O)N4CCN(C)CC4)nn3)c(F)cc2N2C[C@@H](C)N(C)[C@@H](C)C2)c1Cl` , what is its reported % Remaining after 60 min incubation?
Resp: 80.1%

====

Test: PK profile of HBI-2375 in plasma and brain in C57BL/6J mice
Assay type: in vivo
Settings: both sexes, mouse; C57BL/6J mice, 7-day repeat PO 80 mg/kg, plasma
Description: EXAMPLE 4: PK profile of compound of Formula (IIIb) (HBI-2375, HYBI-84) in plasma and brain in C57BL/6J mice: This study was conducted in accordance with the Study Protocol and Pharmaron (Ningbo) TSP's Standard Operating Procedures (SOPs) following all regulatory protocols. This study was conducted under non-GLP environment. […]
measure-name: Tmax at 7 day (h)
Give your result in h as a bare value.

Req: Look at this compound and give its reported Tmax at 7 day. `Cc1c(F)c(N)cc(C(=O)Nc2cc(-n3cc(C(=O)N4CCN(C)CC4)nn3)c(F)cc2N2C[C@@H](C)N(C)[C@@H](C)C2)c1Cl`
Resp: 1

====

molecular target: HDAC2 (Homo sapiens, UniProt Q92769)
Sequence (Q92769 whole entry, species assumed): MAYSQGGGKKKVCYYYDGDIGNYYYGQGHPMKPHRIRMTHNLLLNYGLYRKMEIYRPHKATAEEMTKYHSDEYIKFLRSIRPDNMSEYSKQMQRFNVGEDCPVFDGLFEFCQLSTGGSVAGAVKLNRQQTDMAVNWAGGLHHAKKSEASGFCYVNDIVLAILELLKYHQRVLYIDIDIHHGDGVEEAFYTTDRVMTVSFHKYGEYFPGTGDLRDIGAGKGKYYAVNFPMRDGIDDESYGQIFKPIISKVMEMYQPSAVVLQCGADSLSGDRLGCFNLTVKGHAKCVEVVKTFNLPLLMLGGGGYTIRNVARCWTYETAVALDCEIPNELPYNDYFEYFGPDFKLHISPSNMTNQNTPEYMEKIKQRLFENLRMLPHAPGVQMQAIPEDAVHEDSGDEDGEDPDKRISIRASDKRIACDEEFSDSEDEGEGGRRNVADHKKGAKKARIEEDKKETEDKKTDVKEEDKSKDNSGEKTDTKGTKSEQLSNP
measure-name: IC50

Req: # input molecule: Cc1c(F)c(N)cc(C(=O)Nc2cc(-n3cc(C(=O)N4CCN(C)CC4)nn3)c(F)cc2N2C[C@@H](C)N(C)[C@@H](C)C2)c1Cl [HYBI-084] ; wanted: its IC50
Resp: > 1000 nM

====

Below is a list of entries, each paired with its recorded % Remaining after 60 min incubation value.
test: Liver S9 stability assay; format: in vitro ADME, human; conditions: Human liver S9, 1 μM, 5 mM GSH, 37° C.
Record the value in %, omitting the unit from your answer.

Answered examples (3):
C[C@H]1CN(c2cc(F)c(-c3cnc(N4CCOCC4)nc3)cc2Nc2ncnc(Cl)c2N)CCN1C : 92.1
Cc1c(F)c(N)cc(C(=O)Nc2cc(-n3cc(C(=O)N4CCN(C)CC4)nn3)c(F)cc2N2C[C@@H](C)N(C)[C@@H](C)C2)c1Cl : 85.1
C[C@@H]1CN(c2ncc(-c3cc(Nc4ncnc(Cl)c4N)c(N4CCN(C)[C@@H](C)C4)cc3F)cn2)C[C@H](C)O1 : 81.8

Now for the compound whose % Remaining after 60 min incubation we want.
Req: Quick one: % Remaining after 60 min incubation for `CCN(CC)C(=O)c1cn(-c2cc(NC(=O)c3cc(N)c(F)c(C)c3Cl)c(N3C[C@@H](C)N(C)[C@@H](C)C3)cc2F)nn1` ?
Resp: 107
